- PROTOCOL: qHTS profiling of the MIPE4 collection as inhibitors of Plasmodium falciparum (DD2) proliferation (Rep 2) (AID 743346)
- CONDITION: P. falciparum Dd2 in erythrocytes, SYBR Green DNA, 72 h; at 28.5 µM
# if measured parasite growth, % of control (lower = inhibition) < 20%: true (1)  # else: false (0)

Worked cases, answers included:
>  <MOLECULE>
C=CC(C)=C[C@@]1(C)SC(=O)C(C)=C1O

>  <ASSIGNED_CLASS>
false (0)

$$$$
>  <MOLECULE>
C[N+](C)(CCCCCC[N+](C)(C)CCCN1C(=O)c2cccc3cccc(c23)C1=O)CCCN1C(=O)c2cccc3cccc(c23)C1=O

>  <ASSIGNED_CLASS>
true (1)

$$$$
>  <MOLECULE>
C=C[C@@H]1CN2CC[C@@H]1C[C@H]2[C@H](O)c1ccnc2ccc(OC)cc12

>  <ASSIGNED_CLASS>
false (0)

$$$$
>  <MOLECULE>
O=C(Nc1cccc(C(=O)Nc2ccc(S(=O)(=O)O)c3cc(S(=O)(=O)O)cc(S(=O)(=O)O)c23)c1)Nc1cccc(C(=O)Nc2ccc(S(=O)(=O)O)c3cc(S(=O)(=O)O)cc(S(=O)(=O)O)c23)c1

>  <ASSIGNED_CLASS>
false (0)

$$$$

Given COc1cc(NC(C)CCCN)c2ncccc2c1 (stereo not given) , is recorded parasite growth, % of control (lower = inhibition) strictly lower than 20%?
true (1)

Data provenance: PubChem BioAssay (NCATS)
